Data provenance: paper PMC12439599

Target Entity: human eIF5-CTD (residues 232–431) (human, UniProt P55010 232-431)
Sequence (P55010 232-431): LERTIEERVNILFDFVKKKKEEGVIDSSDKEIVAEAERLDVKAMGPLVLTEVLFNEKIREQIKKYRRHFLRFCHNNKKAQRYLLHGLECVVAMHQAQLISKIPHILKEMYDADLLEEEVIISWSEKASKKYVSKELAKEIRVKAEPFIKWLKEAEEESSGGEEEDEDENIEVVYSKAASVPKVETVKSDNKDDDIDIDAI
Test Description: NMR titration
Recorded Endpoint: pKd
In plain terms, pKd is the concentration in mol/L turned into minus its base-10 logarithm.

Worked cases, answers included:
Binder	pKd
MSGDEMIFDPTMSKKKKKKKKPFMLDEEGDTQTEETQPSETKEVE (domain or fragment, UniProt P20042 1-45, looked up) [human eIF2β-K1 (K-box 1 with surrounding segments)]	5.52
human eIF2β-K3 (K-box 3 with surrounding segments) (domain or fragment, UniProt P20042 106-173, looked up) DVQEPTEPEDDLDIMLGNKKKKKKNVKFPDEDEILEKDEALEDEDNKKDDGISFSNQTGPAWAGSERD	5.40

Fill blank: measured pKd of the binder DTRKKDASDDLDDLNFFNQKKKKKKTKKIFDIDEAEEGVKDLKIES (domain or fragment, UniProt P20042 60-105, looked up) [human eIF2β-K2 (K-box 2 with surrounding segments)] is ____. 5.22
